Biological target: 20S proteasome extracted from rat liver (T-L) (Rattus norvegicus, UniProt P40112+Q9JHW0)
Construct: 20S proteasome extracted from rat liver; from tissue; host or cells: rat liver
Assay: inhibition of 20S proteasome, T-L activity (fluorescent peptide)
Format: biochemical
Conditions: 20 μM; rat liver 20S proteasome, 37° C., 1 h; read-out: inhibition rates (%) T-L
Experimental: 1 μg of 20S proteasome extracted from rat liver was incubated with a 100 μL solution containing various concentrations of the present compounds, 50 μM fluorescent peptides and 20 mM Tris-HCl at 37° C. for 1 h, respectively. […] 0.1% DMSO was used as a solvent control. Compared with the fluorescence of solvent control, an inhibition rate or IC50 value was calculated.
measured.endpoint: inhibition at 20 µM (%)

Past entries and their recorded results:
INSERT INTO results (compound, measurement_unit, measured) VALUES
  ('CC(C)C[C@H](NC(=O)N[C@@H](Cc1ccccc1)C(=O)Nc1cccc(OCc2ccccc2)c1)B(O)O', '%', 36.2),
  ('CC(C)C[C@H](NC(=O)CNC(=O)Nc1cc(Cl)ccc1Cl)B(O)O', '%', 53.1),
  ('CC(C)C[C@H](NC(=O)N[C@@H](CC(C)C)C(=O)N[C@@H](CC(C)C)C(=O)Nc1cnccn1)B(O)O', '%', 25.2),
  ('CC(C)C[C@H](NC(=O)N[C@@H](Cc1ccccc1)C(=O)Nc1cnccn1)B(O)O', '%', 27.2),
  ('COc1ccc(OC)c(CNC(=O)N[C@@H](Cc2ccccc2)C(=O)N[C@@H](CC(C)C)B(O)O)c1', '%', 91),
  ('CC(C)C[C@H](NC(=O)[C@H](Cc1ccccc1)NC(=O)NCc1ccccc1)B(O)O', '%', 88.4);

a = COc1ccc(NC(=O)[C@H](Cc2ccccc2)NC(=O)N[C@@H](CC(C)C)B2OC3C[C@H]4C[C@H](C4(C)C)[C@@]3(C)O2)cc1 (stereo partly drawn)
b = CC(C)C[C@H](NC(=O)[C@H](Cc1ccccc1)NC(=O)NCc1cccc(Cl)c1Cl)B(O)O
Compare a and b and name the one whose reported inhibition at 20 µM is smaller. Which one? Tell me its label.
a

Sourced from patent US10494384B2
